- system_name: SARS-CoV-2 spike RBD (WT) (Severe acute respiratory syndrome …, UniProt P0DTC2)
- method_summary: BLI
Provide the reported Kd of each item.
Answers are plain numbers, in nM.

Prompt line: Requested field: Kd. Item: B07 (antibody, V domains shown) VH: QVQLQQSGPELVKPGASVKISCKASGYVFSSSWMNWVKQRPGKGLEWIGRIYPGDGETNYNGKFKGKATLTADKSSSTAYMQLSSLTSEDSAVYFCARFDYGYDGHVWGTGTTVTVSS VL: DIVMTQSQKFMSTSVGDRVSVTCKASQNVGTNVAWYQQKPGQSPKALIYSASYLYSGVPDRFTGSGSGTDFTLTISNVQSEDLAEYFCQQYNSYPLLTFGAGTKLELK
Response line: 17700

Prompt line: Requested field: Kd. Item: A49 (antibody, V domains shown) VH: QVQLQQSGSELARPGASVNLSCKASGYTFTSYGVSWVKQRTGQGLEWIGDIYPRSGNSYYNEKFKGKATLTADKSSSTAYMELRSLTSEDSAVYFCAREVYGYEFDYWGQGTTLTVSS VL: DIQMTQTTSSLSASLGDRVTISCRASQDISNYLNWYQQKPDGTVQLLIYYTSRLHSGVPSRFSGSGSGTDYSLTISNLEQEDIATYFCQQGNTLPRTFGGGTKLEIK
Response line: 482

Kindly review the next binder as well.
Prompt line: Which Kd value belongs to B44 (antibody, V domains shown) VH: QVQLQQPGAELVKPGASVKVSCKASGYTFTSYWMHWVKQRPGQGLEWIGRIHPSDSDTNYNQKFKGKATFTVDKSSSTAYMQLSSLTSEDSAVYYCAIGDGRDFDYWGQGTTLTVSS VL: DVVLTQTPLSLPVNIGDQASISCKSTKSLLNSDGFTYLDWYLQKPGQSPQLLIYLVSNRFSGVPDRFSGSGSGTDFTLKISRVEAEDLGVYYCFQSNYLPLTFGSGTKLEIK ?
Response line: 123
